Give kon for every item shown.
target: cynomolgus monkey MuSK (cynomolgus monkey, UniProt A0A2K5USF6 24-487); assay: Biacore, MuSK on chip (200RU), 66.7 nM mAb, dissociation pH 7.4
Sequence (A0A2K5USF6 entry or part of it): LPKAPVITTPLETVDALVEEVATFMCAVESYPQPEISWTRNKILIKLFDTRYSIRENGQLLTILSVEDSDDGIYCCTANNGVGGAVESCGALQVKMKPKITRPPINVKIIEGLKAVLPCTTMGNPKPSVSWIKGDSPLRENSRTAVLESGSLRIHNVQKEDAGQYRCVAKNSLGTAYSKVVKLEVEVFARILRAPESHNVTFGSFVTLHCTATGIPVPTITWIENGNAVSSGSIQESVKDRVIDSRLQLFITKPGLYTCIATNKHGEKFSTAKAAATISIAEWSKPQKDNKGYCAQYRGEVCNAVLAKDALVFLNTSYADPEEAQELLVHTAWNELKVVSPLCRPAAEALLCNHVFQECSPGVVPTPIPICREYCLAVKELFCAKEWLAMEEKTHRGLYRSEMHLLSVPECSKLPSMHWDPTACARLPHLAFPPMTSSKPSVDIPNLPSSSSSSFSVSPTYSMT
Field: value (include unit after the number)

Query kon for 3B2g2m2 (antibody, human IgG1, V domains shown, human IgG1-LALA backbone; produced in HEK293 cells) VH: EVQLLESGGGLVQPGGSLRLSCAASGFTFSDYGMSWVRQAPGKGLEWVSAIPGSGGSTYYKESVKGRFTISRDNSKNTLYLQMNSLRAEDTAVYYCAKRSGRIAFGALDAWGQGTLVTVSS VL: QTVVTQEPSFSVSPGGTVTLTCGLSSGSVTSSNYPDWYQQTPGQAPRTLIYSTDSRHSGVPDRFSGSILGNKAALTITGAQADDESDYYCGLYSYSGSKNYVFGGGTKLTVL
890000 M⁻¹ s⁻¹

Query kon for 3B2g2m4 (antibody, human IgG1, V domains shown, human IgG1-LALA backbone; produced in HEK293 cells) VH: EVQLLESGGGLVQPGGSLRLSCAASGFTFSDYGMSWVRQAPGKGLEWVSAIPWQGGSTYYKESVKGRFTISRDNSKNTLYLQMNSLRAEDTAVYYCAKRSGRIAFGALDAWGQGTLVTVSS VL: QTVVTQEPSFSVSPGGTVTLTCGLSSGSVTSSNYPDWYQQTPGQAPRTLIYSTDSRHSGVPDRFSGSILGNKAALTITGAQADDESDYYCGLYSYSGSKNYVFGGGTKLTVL
790000 M⁻¹ s⁻¹

Query kon for 3B2g1m2 (antibody, human IgG1, V domains shown, human IgG1-LALA backbone; produced in HEK293 cells) VH: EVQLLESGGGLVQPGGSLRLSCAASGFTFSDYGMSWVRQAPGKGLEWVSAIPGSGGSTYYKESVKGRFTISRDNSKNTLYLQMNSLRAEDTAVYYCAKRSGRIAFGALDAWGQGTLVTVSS VL: QTVVTQEPSFSVSPGGTVTLTCGLSSGSVTSSNYPDWYQQTPGQAPRTLIYSTDSRHSGVPDRFSGSILGNKAALTITGAQADDESDYYCGLYMYSGSKNYVFGGGTKLTVL
850000 M⁻¹ s⁻¹

Query kon for 3B2g1m4 (antibody, human IgG1, V domains shown, human IgG1-LALA backbone; produced in HEK293 cells) VH: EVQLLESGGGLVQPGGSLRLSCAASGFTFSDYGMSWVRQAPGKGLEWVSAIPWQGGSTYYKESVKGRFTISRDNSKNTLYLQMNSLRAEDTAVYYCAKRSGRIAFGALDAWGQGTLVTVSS VL: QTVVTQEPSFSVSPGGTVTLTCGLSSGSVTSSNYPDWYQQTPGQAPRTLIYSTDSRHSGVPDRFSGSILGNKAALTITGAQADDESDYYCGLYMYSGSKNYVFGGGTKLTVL
730000 M⁻¹ s⁻¹

Query kon for 3B2 (antibody, V domains shown, human IgG1 with the LALA mutations (L234A, L235A); produced in HEK293 cells; also called 3B2 mAb; parental 3B2 Ab) VH: ELQLVESGGGLVQPGGSLRLSCAASGFTFDDYGMSWVRQAPGKGLEWVSAIPWNGGSTYYKESVKGRFTISRDNAKKTLYLQMNSLKSEDTAVYYCAKRSGRIAFGALDAWGQGTLVTVSS VL: QAVVTQEPSLSVSPGGTVTLTCGLSSGSVTSSNYPDWYQQTPGQAPRGLIYSTDSRHSGVPSRFSGSISGNKAALTITGAQSEDEADYYCGLYMYSGSKNYVFGGGTKLTVL
790000 M⁻¹ s⁻¹

Query kon for 3B2g2m1 (antibody, human IgG1, V domains shown, human IgG1-LALA backbone; produced in HEK293 cells; also called MuSK agonist antibody 3B2g2m1; MuSK-mAb 3B2g2m1) VH: EVQLLESGGGLVQPGGSLRLSCAASGFTFSDYGMSWVRQAPGKGLEWVSAIPWSGGSTYYKESVKGRFTISRDNSKNTLYLQMNSLRAEDTAVYYCAKRSGRIAFGALDAWGQGTLVTVSS VL: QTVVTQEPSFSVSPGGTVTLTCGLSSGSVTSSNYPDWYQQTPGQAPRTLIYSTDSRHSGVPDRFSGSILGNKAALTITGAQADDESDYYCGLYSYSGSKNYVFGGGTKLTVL
890000 M⁻¹ s⁻¹
